- System: SW-620
- TEST PROTOCOL: NCI tumour cell line growth inhibition, 48 h
Activity calls are given as the source filed them. No stated cut-off is given here; in the data, active = GI50 up to about 1.1 µM and inactive = higher.
OBSERVABLE: GI50

## Input Supply GI50 value. Item: CN(C)/C=N/CC(O)c1ccccc1 (stereo not given)
## Output > 100 µM (inactive)

## Input Note GI50 for the compound shown: CC1(C)CC(C#Cc2ccccc2)CC(C)(C)N1O
## Output 19.6 µM (inactive)

## Input Write down GI50 measured for item O=C(CC/C(C/C(=N/O)c1ccc(F)cc1)=N/O)N(Cc1ccccc1)Cc1ccccc1
## Output > 100 µM (inactive)

## Input Provide measured GI50 value, entry: C=C(Br)CN(CC(=C)Br)C(C)=O
## Output > 100 µM (inactive)

## Input Note GI50 for the compound shown: CCOC(=O)C(Cl)(NC(=O)c1c(F)c(F)c(F)c(F)c1F)C(F)(F)F (stereo not given)
## Output > 100 µM (inactive)

## Input Return reported GI50. Input compound: CC(C)=CCc1c(O)c(CC=C(C)C)c2oc(-c3ccc(O)cc3O)c(CC=C(C)C)c(=O)c2c1O
## Output 6.1 µM (inactive)

## Input Annotate the compound COc1ccc(NC(=O)CC(=O)N/N=C/c2ccc(N(CCC#N)S(C)(=O)=O)cc2)cc1 with its measured GI50.
## Output > 100 µM (inactive)

## Input Identify measured GI50 associated with C[S+](C)CCOC(=O)C(=[N+]=[N-])c1ccc([N+](=O)[O-])cc1
## Output > 100 µM (inactive)

## Input For CCCCCC[N+](C)(C)Cc1ccc(C[N+](C)(C)CCCCCC)cc1 , write its GI50.
## Output 4.84 µM (inactive)

## Input Complete the entry with GI50 for CC(C)/C(=N\[N+](C)(C)C)c1ccccc1
## Output > 100 µM (inactive)

## Input Quickly give me recorded GI50 for CC(C)=CCC/C(C)=C/CC/C(C)=C/CC(CO)N(C)CC/C=C(\C)CCC=C(C)C (stereo not given)
## Output 3.62 µM (inactive)

## Input Return GI50 (reported value) for this compound: O=C(/C=C/c1ccccc1)Oc1cccc(O)c1
## Output 18.3 µM (inactive)

## Input Using the record for O=c1c(Cc2ccccc2Cc2c(O)oc3ccccc3c2=O)c(O)oc2ccccc12 , state its measured GI50.
## Output > 100 µM (inactive)

## Input # return recorded GI50 for input CCC1(CC)C(=O)N(C(=O)c2ccc(Cl)cc2)N(C(=O)c2ccccc2Cl)C1=O
## Output 29.4 µM (inactive)

## Input Give the reported value of GI50 for this record: CC/C=C(\C(=C/CC)[N+](=O)[O-])[N+](=O)[O-]
## Output 17.1 µM (inactive)

## Input Find the measured GI50 of Cc1n[nH]c(=O)n1/N=C\CC/C=N\n1c(C)n[nH]c1=O and report it.
## Output > 100 µM (inactive)

## Input Find the measured GI50 of O=c1cnn(C/C=C\CO)c(=O)[nH]1 and report it.
## Output > 100 µM (inactive)

## Input Tell me its GI50 given N#Cc1ccccc1C(Cl)(Cl)c1cnccn1 as the entry.
## Output 99.3 µM (inactive)

## Input Identify measured GI50 corresponding to COc1ccc(C2C=C(c3ccccc3)Nc3nnnn32)cc1 (stereo not given)
## Output 37.3 µM (inactive)

## Input // fetch GI50 given entry O=C(Nc1nc2ncn(CCO)c2c(=O)[nH]1)c1ccccc1
## Output > 100 µM (inactive)

## Input Provide measured GI50 value, entry: Cn1nc(-c2ccccc2)nc1[N+](=O)[O-]
## Output > 10 µM (inactive)

## Input Give reported GI50 value for Cc1cc(O)nc(NNC(C#N)c2ccc(O)cc2)n1 (stereo not given)
## Output > 100 µM (inactive)

## Input Look up and state reported GI50 for CC(=O)Nc1ccc(C2C(C(=O)Nc3ccccc3C)=C(C)NC(C)=C2C(=O)Nc2ccccc2C)cc1
## Output > 100 µM (inactive)

## Input Name the recorded GI50 of the compound listed here: Cc1ccccc1-c1c(N)nc(NC#N)nc1C(=O)Nc1ccccc1
## Output > 100 µM (inactive)

## Input Provide only the value of recorded GI50 for CN[C@@H](C)[C@@H](NC)c1ccccc1
## Output > 100 µM (inactive)

## Input Find the measured GI50 of CC1OC(=O)C(O)=C1O (stereo not given) and report it.
## Output > 100 µM (inactive)

## Input Return GI50 for the following compound: CN(C)c1ccc(C2SCC(=O)N2c2nc3cc4sc(N5C(=O)CSC5c5ccc(N(C)C)cc5)nc4cc3s2)cc1 (stereo not given)
## Output 8.02 µM (inactive)

## Input Name the recorded GI50 of the compound listed here: CC(=O)N1C2=CCCC2(C)c2ccccc21 (stereo not given)
## Output > 100 µM (inactive)

## Input Quote GI50 reported for CC1NC(=O)C2=C1C(N)=NC(=O)C2 (stereo not given) please.
## Output > 100 µM (inactive)

## Input // Input: CN1CCN(c2nc3c(c(=O)n(C)c(=O)n3C)n2C)CC1 . Output its GI50 only.
## Output > 100 µM (inactive)

## Input Output measured GI50 for this item: COc1ccc2cc(CNCCCCCCNCc3ccc4cc(OC)ccc4c3)ccc2c1
## Output 0.182 µM (active)

## Input Quote GI50 reported for N#CCCOc1cccc(C2(N3CCCCC3)CCCCC2)c1 please.
## Output > 100 µM (inactive)

## Input Name the recorded GI50 of the compound listed here: CC(C)(C)c1cc(C(P(=O)(O)O)P(=O)(O)O)cc(C(C)(C)C)c1O
## Output > 100 µM (inactive)

## Input # return recorded GI50 for entry CN(C)c1ccc(/C=C/c2ccnc3ccc4ccccc4c23)cc1
## Output 47 µM (inactive)

## Input Read off the recorded GI50 for Cc1nc2ccccc2c(-n2cccn2)c1CCn1cccn1
## Output > 100 µM (inactive)

## Input For CCCNC(=O)C(C)C1CCC2(C)C=CC(=O)C(C)=C2C1O (stereo not given) , write its GI50.
## Output > 100 µM (inactive)

## Input Give me measured GI50, please, for this compound: CC/C=C/C[C@H](O[Si](C)(C)C(C)(C)C)[C@H]1C[C@H]2O[C@H]([C@@H](O)C#C[Si](C)(C)C)C[C@H]2O1
## Output 16.6 µM (inactive)

## Input Identify measured GI50 associated with O=C1OC(c2ccccc2Br)=N/C1=C/c1ccccc1
## Output 42.9 µM (inactive)

## Input Report GI50, nothing else, for this compound: c1ccc2[nH]c3[nH]c4[nH]c5ccccc5[nH]c4[nH]c3[nH]c2c1
## Output > 100 µM (inactive)

## Input Assign GI50 to the following record: C=CC1(C)CCC(C(C)C(=O)C(C=C(C)C)OC(C)=O)C12C(=O)Oc1ccccc1C2=O (stereo not given)
## Output 63.8 µM (inactive)

## Input State its GI50: c1csc(-c2cc(-c3cccs3)c(-c3cccs3)s2)c1
## Output > 100 µM (inactive)

## Input Specify GI50 for O=C(c1ccccc1)c1c(-c2ccccc2)[nH]n(-c2ccc([N+](=O)[O-])cc2)c(=O)c1=O and stop.
## Output 42.6 µM (inactive)

## Input Supply reported GI50 belonging to this compound: Cn1cncc1CC1COC(=O)C1C(O)c1ccccc1 (stereo not given)
## Output > 100 µM (inactive)

## Input Give a short answer stating reported GI50 for C=C1C(=O)OC2C1CCC(=C)C1CC(O)C(=C)C12 (stereo not given) .
## Output 16 µM (inactive)

## Input For the compound COc1ccc2c(c1)O[C@H]1c3ccc(O)cc3OC[C@@H]21 , give its reported GI50.
## Output 33 µM (inactive)
